Listed compounds paired with reported EC50
# Target: human GPR40 (Homo sapiens)
# Assay: Cell-based aequorin assay using human GPR40
# Condition Info: activation of human GPR40; CHO cells stably transfected with GPR40 and Aequorin; 0.01% HSA; aequorin luminescence

The recorded EC50 for entry "CCOc1cc(Cl)ccc1-c1ccc(COc2ccc([C@H](CC(=O)O)c3ccon3)cc2)cc1" equals 10 to 100 nM

Record "O=C(O)C[C@@H](c1ccc(OCc2cccc(S(=O)(=O)c3ccc(C(F)(F)F)cc3)c2)cc1)c1ccon1" . Reported EC50: 100 to 1000 nM

Reported EC50 for "COc1ccc(-c2nc(COc3ccc([C@H](CC(=O)O)c4ccon4)cc3)no2)cc1" was 1000 to 10000 nM

Sure, the documented EC50 for "Cc1nc(-c2ccc(C(F)(F)F)cc2)sc1COc1ccc([C@H](CC(=O)O)c2ccon2)cc1" is 10 to 100 nM

EC50 in this record for "O=C(O)C[C@@H](c1ccc(OCc2ccc(OC(F)(F)F)c(C3=CCCC3)c2)cc1)c1ccon1" : 10 to 100 nM

Form: compound = "Cc1oc(-c2ccc(Cl)cc2)cc1COc1ccc([C@H](CC(=O)O)c2ccon2)cc1" ; EC50 = 10 to 100 nM

The compound listed as "O=C(O)C[C@@H](c1ccc(OCc2noc(-c3cccc(C(F)(F)F)c3)n2)cc1)c1ccon1" shows EC50 equal to 1000 to 10000 nM

// field: EC50; key: "CC(C)c1ccc(COc2ccc([C@H](CC(=O)O)c3ccon3)cc2)cc1OC(F)(F)F" ; value = 10 to 100 nM

The compound identified as "CC1(C)CCC(C)(C)c2cc(COc3ccc([C@H](CC(=O)O)c4ccon4)cc3)ccc21" registered its EC50 at 10 to 100 nM

The measured EC50 associated with "O=C(O)C[C@@H](c1ccc(OCCCCOc2ccc(C(F)(F)F)cc2)cc1)c1ccon1" reads 100 to 1000 nM

The recorded EC50 for entry "O=C(O)C[C@@H](c1ccc(OCc2nc(-c3ccc(Cl)cc3)no2)cc1)c1ccon1" equals 1000 to 10000 nM

# EC50 (compound: "O=C(O)C[C@@H](c1ccc(OCc2ccc(Cl)c(C(F)(F)F)c2)cc1)c1ccon1" ) is 10 to 100 nM

Looking up CC12CCC(c3ncc(COc4ccc([C@H](CC(=O)O)c5ccon5)cc4)nc31)C2(C)C (stereo partly shown) , I found its EC50 recorded as 1000 to 10000 nM

Record "O=C(O)C[C@@H](c1ccc(OCc2cccc(-c3ccc(C(F)(F)F)cc3)c2)cc1)c1ccon1" . Reported EC50: 10 to 100 nM

For "O=C(O)C[C@@H](c1ccc(OCCOc2ccc(C(F)(F)F)cc2)cc1)c1ccon1" the compound record lists EC50 as 100 to 1000 nM

Summary for this compound, "CCCCc1ccc(-c2nc(C)c(COc3ccc([C@H](CC(=O)O)C4=NOCC4)cc3)s2)cc1" : EC50 is 10 to 100 nM

compound "O=C(O)C[C@@H](c1ccc(OCc2ccc(OC(F)(F)F)c(C3CCCC3)c2)cc1)c1ccon1" , EC50 observed: 10 to 100 nM

EC50 for "CCCCc1ccc(-c2nc(C)c(COc3ccc([C@H](CC(=O)O)c4ccon4)cc3)s2)cc1" is 10 to 100 nM

Record "Cc1nc(-c2ccc(OC(C)C)c(Cl)c2)sc1COc1ccc([C@H](CC(=O)O)c2ccon2)cc1" , field EC50: 10 to 100 nM

---

# Target: human GPR40 (Homo sapiens)
# Assay: Cell-based aequorin assay using human GPR40
# Condition Info: activation of human GPR40; CHO cells stably transfected with GPR40 and Aequorin; 0.01% HSA; aequorin luminescence
Parameter: EC50. Scope: all listed entries.

Record Cc1nc(-c2cccc(C(F)(F)F)c2)sc1COc1ccc([C@H](CC(=O)O)c2ccon2)cc1 [Example 72] . Reported EC50: 10 to 100 nM

Summary for this compound, O=C(O)C[C@@H](c1ccc(OCc2ccc(OC(F)(F)F)c(Br)c2)cc1)c1ccon1 [Example 25] : EC50 is 10 to 100 nM

For this compound ( O=C(O)C[C@@H](c1ccc(OCc2nc(-c3c(Cl)cccc3Cl)no2)cc1)c1ccon1 [Example 71] ), measured EC50 is 1000 to 10000 nM

Notebook: O=C(O)C[C@@H](c1ccc(OCc2cccc(NS(=O)(=O)c3ccc(C(F)(F)F)cc3)c2)cc1)c1ccon1 [Example 32] , EC50 read as 100 to 1000 nM

Cc1cc([C@@H](CC(=O)O)c2ccc(OCc3cccc(-c4ccc(C(F)(F)F)cc4)c3)cc2)no1 [Example 39] has a reported EC50 of 100 to 10000 nM

Memo: O=C(O)C[C@@H](c1ccc(OCc2cccc(Sc3ccc(C(F)(F)F)cc3)c2)cc1)c1ccon1 [Example 31] , reported EC50: 10 to 100 nM

Field EC50 (entry Cc1nc(-c2ccc(C(F)(F)F)cc2)sc1COc1ccc([C@H](CC(=O)O)C2=NOCC2)cc1 [Example 9] ) reads 10 to 100 nM

---

# Target: UniProt O14842
# Assay: Cell-based aequorin assay using human GPR40
# Condition Info: activation of human GPR40; CHO cells stably transfected with GPR40 and Aequorin; 0.01% HSA; aequorin luminescence
Parameter Measured: EC50

{"columns": ["Smiles Data", "EC50"],
 "data": [
  ["CCOc1cc(Cl)ccc1-c1ccc(COc2ccc([C@@H](CC(=O)O)c3ccon3)cc2)cc1", "1000 to 10000 nM"],
  ["CC1(C)CCC(C)(C)c2cc(COc3ccc([C@@H](CC(=O)O)c4ccon4)cc3)ccc21", "1000 to 10000 nM"],
  ["CC(C)c1cc(COc2ccc([C@H](CC(=O)O)c3ccon3)cc2)ccc1C(C)(C)C", "100 to 1000 nM"]
]}

Shift focus to the following entry.
// "CCCCOc1ccc(-c2nc(C)c(COc3ccc([C@H](CC(=O)O)c4ccon4)cc3)s2)cc1F" : EC50 value = 10 to 100 nM

---

# Target: human GPR40 (Homo sapiens, UniProt O14842)
# Sequence (O14842 whole entry): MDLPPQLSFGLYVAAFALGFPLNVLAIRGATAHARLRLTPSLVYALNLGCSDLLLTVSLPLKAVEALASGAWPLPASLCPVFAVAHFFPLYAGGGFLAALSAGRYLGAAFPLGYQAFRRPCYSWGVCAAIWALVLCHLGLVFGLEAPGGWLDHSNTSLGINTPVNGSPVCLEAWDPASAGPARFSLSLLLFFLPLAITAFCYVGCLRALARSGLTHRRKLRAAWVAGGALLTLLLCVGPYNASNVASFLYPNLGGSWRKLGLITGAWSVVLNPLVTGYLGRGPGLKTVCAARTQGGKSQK
# Assay: Cell-based aequorin assay using human GPR40
# Condition Info: activation of human GPR40; CHO cells stably transfected with GPR40 and Aequorin; 0.01% HSA; aequorin luminescence
Measured EC50 values are reported for all entries that follow.

{"columns": ["Compound", "Value Reported"],
 "data": [
  ["O=C(O)C[C@@H](c1ccc(OCc2ccc(C3=CCCC3)c(OC(F)(F)F)c2)cc1)c1ccon1 [Example 28]", "10 to 100 nM"],
  ["Cc1oc(-c2ccc(C(F)(F)F)cc2)cc1COc1ccc([C@H](CC(=O)O)c2ccon2)cc1 [Example 52]", "10 to 100 nM"],
  ["CC1(C)CCC(C)(C)c2cc(COc3ccc(C(CC(=O)O)C4=NOCC4)cc3)ccc21 (centres unmarked) [Example 42]", "100 to 1000 nM"],
  ["O=C(O)C[C@@H](c1ccc(OCc2noc(-c3ccc(C(F)(F)F)cc3)n2)cc1)c1ccon1 [Example 65]", "1000 to 10000 nM"],
  ["CCOCCOc1cc(COc2ccc([C@H](CC(=O)O)c3ccon3)cc2)c(Br)cc1C(C)(C)C [Example 46]", "100 to 1000 nM"]
]}

Value (EC50, human GPR40 (Homo sapiens, UniProt O14842)) for record CC12CCC(c3nc(COc4ccc([C@H](CC(=O)O)c5ccon5)cc4)cnc31)C2(C)C (some centres unmarked) [Example 82] = 1000 to 10000 nM

Log: human GPR40 (Homo sapiens, UniProt O14842), compound CS(=O)(=O)c1cc(COc2ccc([C@H](CC(=O)O)c3ccon3)cc2)ccc1OC(F)(F)F [Example 19] , EC50 = 1000 to 10000 nM

Tested system human GPR40 (Homo sapiens, UniProt O14842); EC50 recorded for Cc1nc(-c2ccc(CC(C)C)cc2)sc1COc1ccc([C@H](CC(=O)O)c2ccon2)cc1 [Example 78] was 10 to 100 nM

---

# Target: human GPR40 (Homo sapiens, UniProt O14842)
# Assay: Cell-based aequorin assay using human GPR40
# Condition Info: activation of human GPR40; CHO cells stably transfected with GPR40 and Aequorin; 0.01% HSA; aequorin luminescence
pEC50: −log10 of the molar value.
# reported pEC50; entries follow

Below: 9 molecules and their reported pEC50.
{"columns": ["Molecule", "Parameter Measured", "Value Reported"],
 "data": [
  ["O=C(O)C[C@@H](c1ccc(OCc2nc(-c3ccc(OCc4ccc(Cl)cc4)cc3)no2)cc1)c1ccon1 [Example 12]", "pEC50", "6.00 to 7.00"],
  ["O=C(O)C[C@@H](c1ccc(OCc2nc(-c3ccccc3)no2)cc1)c1ccon1 [Example 67]", "pEC50", "5.00 to 6.00"],
  ["CCCCc1ccc(-c2ccc(COc3ccc([C@H](CC(=O)O)c4ccon4)cc3)s2)cc1 [Example 60]", "pEC50", "7.00 to 8.00"],
  ["O=C(O)C[C@H](c1ccc(OCc2cccc(-c3ccc(C(F)(F)F)cc3)c2)cc1)c1ccon1 [Example 3]", "pEC50", "5.00 to 6.00"],
  ["Cc1nc(-c2ccc(Cl)cc2)sc1COc1ccc([C@H](CC(=O)O)c2ccon2)cc1 [Example 57]", "pEC50", "7.00 to 8.00"],
  ["O=C(O)C[C@@H](c1ccc(OCc2ccc(OC(F)(F)F)c(OC(F)(F)F)c2)cc1)c1ccon1 [Example 22]", "pEC50", "7.00 to 8.00"],
  ["Cc1ccc(-c2nc(C)c(COc3ccc([C@H](CC(=O)O)C4=NOCC4)cc3)s2)cc1 [Example 10]", "pEC50", "6.00 to 7.00"],
  ["COc1ccccc1-c1nc(COc2ccc([C@H](CC(=O)O)c3ccon3)cc2)no1 [Example 64]", "pEC50", "5.00 to 6.00"],
  ["CC(C)(C)C(=O)Nc1cccc(COc2ccc([C@H](CC(=O)O)c3ccon3)cc2)c1 [Example 30]", "pEC50", "5.00 to 6.00"]
]}

Read the next record carefully.
Considering CC(C)(C)OC(=O)N1CC=C(c2cccc(COc3ccc([C@H](CC(=O)O)c4ccon4)cc3)c2)CC1 [Example 34] , its pEC50 with human GPR40 (Homo sapiens, UniProt O14842) was recorded as 5.00 to 6.00
